As shown below, each of these binders has a reported Neutralization PSV IC50 value.
- assay_target: VP1 capsid protein on BKV pseudovirions of genotype Ia (BK-D; JF894228) (BK virus genotype Ia (BK-D))
- measurement_protocol: cell-based or functional assay
# value in µg/mL; strip the unit string

antibody C4P7 (antibody, V domains shown) VH: EVQLLESGGGLVQPGGSLRLSCAASGFTFSSYAMSWVRQAPGKGLEWVSSLTGSGGSTYYRDSVKGRFTIFRDNSKKTLYMQMNSLRAEDTAVYYCAKEGAYSYDFWYFDLWGRGTLVTVSS VL: EIVLTQSPGTLSLSPGERATLSCRASQTVSGNYLAWYQQKPGQSPSLLIYGASSRATGIPDRFTGSGSGTDFTLTISRLEPADFAVYYCQQYGRPLTFGGGTKVEIK = 0.493

Asked: Requested field: Neutralization PSV IC50. Item: antibody E11P6 (antibody, V domains shown) VH: EVQLVESGGGLVQPGGSLRLSCAASGFTFRSYSMDWVRQAPGKGLEWVSYISGSSNQKYYTDSVRGRFTISRDNAKNSLFLQMNSLRAEDSAVYYCAREDDILTPLYGMDVWGPGTTVTVSS VL: EIVLTQSPDTLSLSPGARATLSCRASQSVRSNYLAWYQQKPGQAPRLLIYGASSRATAIPDRFSGSGSGTDLTLTITRLEPEDFAVYYCHQYASSPRTFGQGTKVEIK
Given back: 0.216

Asked: Now try antibody D7P6 (antibody, V domains shown) VH: EVQLLESGGGLVQPGGSLRLSCAASGFPFSSYAMSWVRQAPGKGLEWVSGITGSASGTYYADSVKGRFTISRDNSKNTLYLRMNSLRAEDTAVYYCAKEGAYSYDYWYFDLWGRGTLVTVSS VL: EIVLTQSPGTLSLSPGERATLSCRASQSVSGSYLAWYQQKPGQTPRLLIYGASSRATGIPDRFSGSGSGTDFTLTINRLDPEDFGVYYCQQYGSLVTFGGGSKVEIK .
Given back: 0.096
